- TEST DETAILS: amyloid nucleation score (Sup35N fusion, yeast selection) (log enrichment); library NNK3; higher = more nucleation; inactive = no reads after selection;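 further: zero at mode of non-aggregating sequences after 7 days selection at 30°C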
MEASURED ENDPOINT: amyloid nucleation score

| SUBSTANCE | RESULT |
| --- | --- |
| YRVSEELTLLY | inactive |
| FTLKRLPGYSHRSLEWLPPY | inactive |
| LVYKLRGRCYERLYKWRLCD | inactive |
| TWQFSGYWCSLYMSA | 1.67 |
| VMQYLLMAEKNQLRLQRFAR | inactive |

## Task Please report the recorded amyloid nucleation score for `RQEFIGWFSTSALSAQFLS` .
## Result inactive

## Task Please report the recorded amyloid nucleation score for `TIFEAA` .
## Result inactive

## Task Please report the recorded amyloid nucleation score for `LYFILLAHLFSCNNPVSKDP` .
## Result 1.4

## Task Please report the recorded amyloid nucleation score for `FIYSGYTSVNKILGFYNHDS` .
## Result 0.95

###

- TEST DETAILS: amyloid nucleation score (Sup35N fusion, yeast selection) (log enrichment); library NNK1; higher = more nucleation; inactive = no reads after selection
MEASURED ENDPOINT: amyloid nucleation score

## Task Please report the recorded amyloid nucleation score for `DFRWWYLFC` .
## Result 1.11

## Task Please report the recorded amyloid nucleation score for `YDWAVSAS` .
## Result -0.364

## Task Please report the recorded amyloid nucleation score for `LFVLKTWLRNSDWFRYDESQ` .
## Result -0.094

## Task Please report the recorded amyloid nucleation score for `SLVWVCFWGICI` .
## Result 6.67

## Task Please report the recorded amyloid nucleation score for `TNFCGVNPGRIIRLWEDRSW` .
## Result -0.762

## Task Please report the recorded amyloid nucleation score for `FGNGHSRMHHRTLHTKPRAA` .
## Result 0.37

## Task Please report the recorded amyloid nucleation score for `IANCQAGWGCRQA` .
## Result 0.315

## Task Please report the recorded amyloid nucleation score for `FFIYPWFRMTFERRLDGELG` .
## Result 1.62

## Task Please report the recorded amyloid nucleation score for `APRHDCMSSDLQVVKMDFLL` .
## Result 0.799

## Task Please report the recorded amyloid nucleation score for `EVEIFILNLLFIFPNQKARW` .
## Result 4.17

## Task Please report the recorded amyloid nucleation score for `ETMGGLE` .
## Result 0.107

## Task Please report the recorded amyloid nucleation score for `YSAVISHDVGLFVYLTETET` .
## Result -0.363

## Task Please report the recorded amyloid nucleation score for `LYICPHYDYWLCEQYMHWSP` .
## Result 0.69

## Task Please report the recorded amyloid nucleation score for `TSTYWQVDEAV` .
## Result -0.325

## Task Please report the recorded amyloid nucleation score for `VLSEVDWLSIFHGWMFGVRC` .
## Result 0.434

## Task Please report the recorded amyloid nucleation score for `KELIKCYLNM` .
## Result 0.463

## Task Please report the recorded amyloid nucleation score for `IAFTVWADWYLPKLGLIREL` .
## Result 0.508

## Task Please report the recorded amyloid nucleation score for `NWSFEWWTSIAMEQ` .
## Result -0.222

## Task Please report the recorded amyloid nucleation score for `TLDWLMSIFLILVSLAFNGL` .
## Result -0.14

## Task Please report the recorded amyloid nucleation score for `GHRINAYVVVVHLGSSGGGW` .
## Result 2.07

## Task Please report the recorded amyloid nucleation score for `GSALPSIWSWERFRSLLRNL` .
## Result -0.221

## Task Please report the recorded amyloid nucleation score for `KRVSRNPNPGVV` .
## Result -0.076

## Task Please report the recorded amyloid nucleation score for `AKSQYMVVVYMPIYLWQCYI` .
## Result 4.01

## Task Please report the recorded amyloid nucleation score for `KCTELTTCRSPVMKGEAVWL` .
## Result -0.052

## Task Please report the recorded amyloid nucleation score for `GQICAWPITMVWAAGR` .
## Result -0.391

## Task Please report the recorded amyloid nucleation score for `SYSYIRLDNFSMFIYFADCS` .
## Result 3.92
